- subject.of.test: T1, human DR3 (full length, on cells) (human, UniProt Q93038 25-417)
- T1 sequence: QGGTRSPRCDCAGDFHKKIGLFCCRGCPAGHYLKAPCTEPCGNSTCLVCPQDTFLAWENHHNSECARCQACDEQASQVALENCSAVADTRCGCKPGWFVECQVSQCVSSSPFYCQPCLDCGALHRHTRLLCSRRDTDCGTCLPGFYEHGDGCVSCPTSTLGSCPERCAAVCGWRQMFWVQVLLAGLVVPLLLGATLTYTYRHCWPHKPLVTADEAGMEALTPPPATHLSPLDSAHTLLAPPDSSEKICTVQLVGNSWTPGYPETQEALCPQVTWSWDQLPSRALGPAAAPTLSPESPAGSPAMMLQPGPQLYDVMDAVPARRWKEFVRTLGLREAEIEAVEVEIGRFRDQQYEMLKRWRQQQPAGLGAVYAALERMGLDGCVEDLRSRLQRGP
- experiment.notes: cell-based or functional assay
Consider the following binders and their measured IFN-γ, TL1A-costimulated RA SF cells, Fab 0.003 µg/mL readings.
measured.property: IFN-γ, TL1A-costimulated RA SF cells, Fab 0.003 µg/mL

| binder | result |
| --- | --- |
| 0118 (chimeric Fab of 27F16, human IgG1 constant domain) (Fab, V domains shown) VH: EVQLVESGGDFVKPGGSLKLSCAASGFTFNNYGMSWVRQTPDKRLEWVAAISSGVTYTYYPDTVKGRFTISRDNAKNTLYLHMSSLKSEDTAMYYCGRHDDYGNHFDYWGQGTTLTVSS VL: DIVMTQSPSSLAMSLGQRVTMNCKSSQSLLNSHNQKNYLAWYQQKPGQSPKLLVYFASSRESGVPDRFIGSGSGTDFTLTISSVQAEDLADYFCQQHYSTPFTFGSGTKLEIKR | 2310 pg/mL |
| 0170 (humanized IgG1 Fab of 0072; HC T28A S49A Y91; LC Q3A T5A S60A M4) (Fab, V domains shown) VH: EVQLVESGGGLVQPGGSLRLSCAASGFTFSNYDMSWVRQAAGKGLEWVSAFSSDGYTFYPGAVKGRFTISRENAKNSLYLQMNSLRAGDTAVYYCARHADYANYPVMDYWGQGTLVTVSS VL: DIAMAQSPSSLSASVGDRVTITCRASKSVSTSGYSYMHWYQQKPGKAPKLLIYLASNLEAGVPSRFSGSGSGTDFTLTISSLQPEDFATYYCQHSRELPLTFGGGTKVEIK | 1790 pg/mL |
| 0173 (humanized IgG1 Fab of 0072; HC T28A S49A Y91S; LC Q3A T5A S60A M4L) (Fab, V domains shown) VH: EVQLVESGGGLVQPGGSLRLSCAASGFTFSNYDMSWVRQAAGKGLEWVSAFSSDGYTFYPGAVKGRFTISRENAKNSLYLQMNSLRAGDTAVYYCARHADYANSPVMDYWGQGTLVTVSS VL: DIALAQSPSSLSASVGDRVTITCRASKSVSTSGYSYMHWYQQKPGKAPKLLIYLASNLEAGVPSRFSGSGSGTDFTLTISSLQPEDFATYYCQHSRELPLTFGGGTKVEIK | 1550 pg/mL |
| 0171 (humanized IgG1 Fab of 0072 without back mutations) (Fab, V domains shown) VH: EVQLVESGGGLVQPGGSLRLSCAASGFTFSNYDMSWVRQATGKGLEWVSAFSSDGYTFYPGSVKGRFTISRENAKNSLYLQMNSLRAGDTAVYYCARHADYANYPVMDYWGQGTLVTVSS VL: DIQMTQSPSSLSASVGDRVTITCRASKSVSTSGYSYMHWYQQKPGKAPKLLIYLASNLESGVPSRFSGSGSGTDFTLTISSLQPEDFATYYCQHSRELPLTFGGGTKVEIK | 1870 pg/mL |
